- Test system: OVCAR-4 ovarian
- assay name: NCI tumour cell line growth inhibition, 48 h
measure name: GI50

>>> endpoint_result("Cc1c2cc[nH]c(=O)c2c(C)c2c1[nH]c1cc(OCCN3CCN(C)CC3)ccc12")
"1170 nM"
>>> endpoint_result("COC(=O)[C@@H](NC(=O)NC(=O)NC(=O)CI)C(C)C")
"3190 nM"
>>> endpoint_result("COc1ccc(-c2[nH]ncc2-c2cc3c(c(OC)c2)OCC(=O)N3)cc1")
"2910 nM"

###

- Test system: SK-MEL-2 melanoma
- assay name: NCI tumour cell line growth inhibition, 48 h
Reported TGI values for the following molecules.
measure name: TGI

>>> endpoint_result("O=c1cc(CNC2CCCC2)[nH]c(=O)[nH]1")
"> 100 µM"
>>> endpoint_result("Cc1nc2c(=S)[nH]ncc2[nH]1")
"> 100 µM"
>>> endpoint_result("Cc1cccc(C(=O)c2cccc3ccccc23)c1C(=O)O")
"> 100 µM"
>>> endpoint_result("Cc1nc2sccn2c1/C=C1/C(=O)Nc2ccccc21")
"> 100 µM"
>>> endpoint_result("C=C1C(=O)OC2/C=C(\\C)C(OC(C)=O)C3OC3C(C)(O)CC(OC(=O)/C(C)=C/C)C12 (centres undefined)")
"20.6 µM"
>>> endpoint_result("O=C1C=CC2CCC1C2 (centres undefined)")
"> 100 µM"
>>> endpoint_result("C=C(CNC(=O)Nc1ccc(-c2ccccc2)cc1)c1ccc(C(=O)Nc2ccccc2N)cc1")
"> 100 µM"
>>> endpoint_result("O=C(COc1ccc(OCC(=O)N2C(=O)CC(=O)N(c3ccccc3)C2=S)cc1)N1C(=O)CC(=O)N(c2ccccc2)C1=S")
"> 100 µM"
>>> endpoint_result("Clc1ccc(-c2ccc(-c3nnc(CCc4nnc(-c5ccc(-c6ccc(Cl)cc6)o5)o4)o3)o2)cc1")
"> 100 µM"
>>> endpoint_result("Cc1ccc(C(=O)O/N=C2/CCCC/C2=C\\c2ccccc2)cc1")
"> 100 µM"
>>> endpoint_result("COc1ccc2oc(=N)c(C(=O)Nc3cccc4ccccc34)cc2c1")
"85.7 µM"
>>> endpoint_result("O=C1C2CCCCC2C(=O)N1n1c(Cc2ccc(Cl)cc2)n[nH]c1=O (centres undefined)")
"> 100 µM"
>>> endpoint_result("CC(=O)OCC1OC(Nc2[nH]c(=O)n(C)c(=O)c2-c2csc(N)n2)C(OC(C)=O)C(OC(C)=O)C1OC(C)=O (centres undefined)")
"> 100 µM"
>>> endpoint_result("N#Cc1cccc(N2C(=O)c3c(c(-c4ccccc4)c(-c4ccc(Sc5ccc(-c6c(-c7ccccc7)c7c(c(-c8ccccc8)c6-c6ccccc6)C(=O)N(c6cccc(C#N)c6)C7=O)cc5)cc4)c(-c4ccccc4)c3-c3ccccc3)C2=O)c1")
"> 100 µM"
>>> endpoint_result("CC1CC2C3CC(F)C4=CC(=O)C=CC4(C)C3(F)C(O)CC2(C)C1(O)C(=O)COC(=O)C(C)(C)C (centres undefined)")
"> 100 µM"
>>> endpoint_result("O=C(Nc1ccc(Cl)cc1Cl)c1ccc(NC2=C(Cl)C(=O)N(Cc3ccccc3)C2=O)cc1")
"> 100 µM"
>>> endpoint_result("CC12CC3C(CC1SCC(=O)O2)C3(C)C (centres undefined)")
"> 100 µM"
>>> endpoint_result("COc1cccc2c1OC1c3ccccc3OCC1C2 (centres undefined)")
"> 100 µM"
>>> endpoint_result("C=C(Cn1c(=O)c2ccccc2c2ccccc21)c1ccc(C(=O)Nc2ccccc2N)cc1")
"> 100 µM"
>>> endpoint_result("O=C(Nc1c(O)[nH]c(=S)[nH]c1=O)c1ccccn1")
"> 100 µM"
>>> endpoint_result("CCOc1ccc2nc(NC(=O)C(=O)C(C(=O)c3ccccc3-c3ccccc3)C3OC(=O)c4ccccc43)sc2c1 (centres undefined)")
"60.1 µM"
>>> endpoint_result("S=c1sc2c(Cl)ncnc2n1-c1ccccc1")
"21.3 µM"
>>> endpoint_result("OCC1OC(c2scc3c(=S)nc[nH]c23)C(O)C1O (centres undefined)")
"> 65.6 µM"
>>> endpoint_result("COc1cc2c(/C=N\\N=C(N)N)c(Cl)[nH]c2cc1C")
"> 100 µM"
>>> endpoint_result("C=CCC1(O)c2ccccc2C(=O)c2c(O)ccc(O)c21 (centres undefined)")
"9.98 µM"
>>> endpoint_result("C[n+]1c(/C=C\\C=C\\N2CCCCC2)sc2ccccc21")
"14.3 µM"
>>> endpoint_result("Clc1ccc2c(SCC3CO3)c3ccccc3nc2c1 (centres undefined)")
"8.11 µM"
>>> endpoint_result("O=C(O)CCCl")
"> 5000 µM"
>>> endpoint_result("COc1cc(/C=C/C(=O)OCC23CC[C@@]4(C(=O)O)CCC(C)[C@H](C)C4C2=CCC2[C@@]4(C)CC[C@H](O)C(C)(C)C4CC[C@]23C)ccc1O (some centres undefined)")
"47.5 µM"
>>> endpoint_result("Nc1nc(N)c2ncn(CC3CCC(CO)C3)c2n1 (centres undefined)")
"> 100 µM"
>>> endpoint_result("O=C1C(N2CCCC2)=CC(=O)c2c(O)c(N3CCCC3)c(Cl)c(O)c21")
"> 10 µM"
>>> endpoint_result("CN(C)c1nc2sc3c(c2c(=O)o1)CCCC3")
"99.4 µM"
>>> endpoint_result("C[N+]1(C)CCCC1C(=O)[O-] (centres undefined)")
"> 100 µM"
>>> endpoint_result("C1CC2=C(C1)[Se]C(=C1Sc3nsnc3S1)[Se]2")
"> 100 µM"
>>> endpoint_result("CCCC(=O)O")
"> 18700 µM"
>>> endpoint_result("O=C(c1ccccc1)c1c(NCC(O)CN2CCCC2)n(Cc2ccccc2)c(=O)n(Cc2ccccc2)c1=O (centres undefined)")
"39 µM"
>>> endpoint_result("Nc1ncnc2c1ncn2C1OC(COP(=O)(O)CP(=O)(O)O)C(O)C1O (centres undefined)")
"> 100 µM"
>>> endpoint_result("CC1=NN(C(=O)CSc2nnc(SCC(=O)N3N=C(C)CC3(O)c3ccccc3)s2)C(O)(c2ccccc2)C1 (centres undefined)")
"> 100 µM"
>>> endpoint_result("CN1C(=O)c2c(ccc3c2OCO3)C2C(O)Cc3cc4c(cc3C21)OCO4 (centres undefined)")
"8.44 µM"
>>> endpoint_result("CN(C)CC(/C(Cc1ccccc1)=N\\NC(=O)C[n+]1ccccc1)c1ccccc1 (centres undefined)")
"> 100 µM"
>>> endpoint_result("O=c1c2ccccc2oc2nc3n(c(=O)c12)CCCS3")
"> 100 µM"
>>> endpoint_result("O=C1c2c(F)c(F)c(F)c(F)c2SC2=NCCN12")
"6.52 µM"
>>> endpoint_result("CCOc1ccc(NC(=O)CC2SC(=Nc3ccc(Cl)cc3)NC2=O)cc1 (centres undefined)")
"> 100 µM"
>>> endpoint_result("COc1cc2c(cc1O)C=NCC2")
"> 100 µM"

###

- Tested on: A549 NSCLC
- assay name: NCI tumour cell line growth inhibition, 48 h; in the data active = GI50 below about 0.43 µM; inactive = the rest
Outcome codes: yes for active, no for inactive

>>> group_label("COc1ccc2c(c1)C(=O)c1c-2n(CCCN)c(=O)c2ccccc12")
"yes"
>>> group_label("C=C1C(=O)O[C@H]2[C@H]1CC/C(CNC(=O)/C=C/c1ccc(Br)cc1)=C\\CC[C@@]1(C)O[C@@H]21")
"no"
>>> group_label("COC(=O)[C@@H](NC(=O)NC(=O)NC(=O)CI)C(C)C")
"no"
>>> group_label("Cc1nc2sccn2c1/C=C1/C(=O)Nc2ccccc21")
"no"
>>> group_label("Cc1cc(C)nc(NC(N)=NCCc2ccccc2)n1")
"no"
>>> group_label("C=C(Cn1c(=O)c2ccccc2c2ccccc21)c1ccc(C(=O)Nc2ccccc2N)cc1")
"no"
>>> group_label("O=C(Nc1ccc(Cl)cc1Cl)c1ccc(NC2=C(Cl)C(=O)N(Cc3ccccc3)C2=O)cc1")
"no"
>>> group_label("CCC[CH2][Sn]([CH2]CCC)([O]C(=O)c1c(F)cccc1F)[O]C(=O)c1c(F)cccc1F")
"no"
>>> group_label("C(=Nc1ccccc1)C1CCCC[N-]1.C(=Nc1ccccc1)C1CCCC[N-]1.[Cu+2].[O-][Cl+3]([O-])([O-])O (stereo unspecified)")
"no"
>>> group_label("Cn1cc(-c2nonc2-c2c[nH]c3ccccc23)c2ccccc21")
"no"
>>> group_label("Nc1ccn(C2OC(CO)C(O)C2F)c(=O)n1 (stereo unspecified)")
"no"
>>> group_label("CCCN(CCC)CCCNCc1cc(I)cc(C)c1O")
"no"
>>> group_label("Cc1ccccc1NC(=S)Nc1ccccn1")
"no"
>>> group_label("O=C(c1ccccc1)c1c(NCC(O)CN2CCCC2)n(Cc2ccccc2)c(=O)n(Cc2ccccc2)c1=O (stereo unspecified)")
"no"
>>> group_label("CC(C)(C)OC(=O)NCCNC1=CC(=O)c2nc3ccccc3c3ccnc1c23")
"no"
>>> group_label("CC1=C([Se]CC(OC(=O)[C@@H](CSSC(C)(C)C)NC(=O)OC(C)(C)C)C(=O)NC(C)(C)C)C(=O)c2ccccc2C1=O (stereo partly specified)")
"no"
